test_name: Metabolic stability in human liver microsomes assessed as half life at 1 uM preincubated for 1 hr followed by NADPH addition and measured upto 60 mins by LC-MS/MS analysis
Type: ADME, Microsome
particulars: time < 120 min

{"compound": "CSc1nn2cc(-c3cc4ccccc4o3)nc2s1", "half-life at 1 µM": "11.1 min"}
{"compound": "COc1nn2cc(-c3cc4c(Br)cc5c(c4o3)OCCO5)nc2s1", "half-life at 1 µM": "59.7 min"}
{"compound": "COc1nn2cc(-c3cc4ccc5c(c4o3)OCC(COc3ccc(F)cc3)O5)nc2s1 (centres undefined)", "half-life at 1 µM": "42.5 min"}
{"compound": "COc1nn2cc(-c3cc4c(F)cc5c(c4o3)OCCO5)nc2s1", "half-life at 1 µM": "34.3 min"}

###

test_name: AUC (0 to t) in ICR mouse at 12 mg/kg, po measured upto 24 hrs by LC-MS/MS analysis
Format: ADME, organism-based
particulars: in vivo
AUC(0-t) at 24 h reference

{"molecule": "COc1nn2cc(-c3cc4ccc5c(c4o3)OC(COc3ccc(F)cc3)CO5)nc2s1 (configuration not stated)", "AUC(0-t) at 24 h [µg·h/mL]": 3.46}
{"molecule": "COc1nn2cc(-c3cc4ccc5c(c4o3)OCC(COc3ccc(F)cc3)O5)nc2s1 (configuration not stated)", "AUC(0-t) at 24 h [µg·h/mL]": 3.04}

###

test_name: Oral bioavailability in Sprague-Dawley rat at 50 mg/kg
Assay type: ADME, organism-based
particulars: in vivo
value_type: bioavailability (%)

{"smiles_code": "COc1nn2cc(-c3cc4c(F)cc5c(c4o3)OCCO5)nc2s1", "value_type": "bioavailability", "assay_result": 4.9}
{"smiles_code": "COc1nn2cc(-c3cc4ccc5c(c4o3)OCCO5)nc2s1", "value_type": "bioavailability", "assay_result": 0.94}

###

AUC(0-t) at 24 h reference
test_name: AUC (0 to t) in ICR mouse at 2 mg/kg, iv measured upto 24 hrs by LC-MS/MS analysis
Type: ADME, organism-based
particulars: in vivo
value_type: AUC(0-t) at 24 h (ng·h/mL)

{"molecule": "COc1nn2cc(-c3cc4ccc5c(c4o3)OCC(COc3ccc(F)cc3)O5)nc2s1 (configuration not stated)", "value_type": "AUC(0-t) at 24 h", "assay_result": 5390}
{"molecule": "COc1nn2cc(-c3cc4ccc5c(c4o3)OC(COc3ccc(F)cc3)CO5)nc2s1 (configuration not stated)", "value_type": "AUC(0-t) at 24 h", "assay_result": 1250}

###

test_name: Metabolic stability in human liver microsomes assessed as half life at 1 uM preincubated for 1 hr followed by NADPH addition and measured upto 60 mins by LC-MS/MS analysis
Format: ADME, Microsome
particulars: time < 120 min

{"smiles_code": "Cc1ccc2nc(-c3cc4ccc5c(c4o3)OCCO5)cn2n1", "half-life at 1 µM (min)": 10.6}
{"smiles_code": "COc1nn2cc(-c3cc4c(OCc5csc(-c6ccc(C(=O)N(C)C)cc6)n5)cc5c(c4o3)OCCO5)nc2s1", "half-life at 1 µM (min)": 55.8}
{"smiles_code": "COc1nn2cc(-c3cc4c(OCC(=O)N5CCC(F)(F)CC5)cc5c(c4o3)OCCO5)nc2s1", "half-life at 1 µM (min)": 16.1}
{"smiles_code": "COc1nn2cc(-c3cc4ccc5c(c4o3)OCCCO5)nc2s1", "half-life at 1 µM (min)": 18.4}
